assayProtocol: Toxicity of ligand alone (LDH release, CC50)
experimentalSetup: African green monkey
measuredAttribute: CC50 at 72 h (µg/mL)
Just the number please, in µg/mL, no unit attached.

[[record]]
molecule = "COc1cc2c(cc1OC)CN(CCCCn1c(=O)n(C)c3ccccc31)CC2 [CM398]"
displayunit = "µg/mL"
experimentalvalue = 111


In the following, a different molecule is considered.
Lookup: Sample CC(CCCn1c(=O)sc2cc(F)ccc21)N1CCN(C2CCCCC2)CC1 (centres unmarked) [AZ66] — what was its CC50 at 72 h?
Found: 128

----------
Test system: SARS-CoV-2
experimentalSetup: read-out: EC50 for inhibition of SARS-CoV-2 induced cytotoxicity; Vero E6, MOI 0.2, 72 h, LDH release
measuredAttribute: EC50 (µM)
Report the figure in µM without appending any unit label.

Lookup: SARS-CoV-2 / EC50 / COc1ccc(CCN2CCN(CCCc3ccccc3)CC2)cc1OC [SA4503, cutamesine, reference compound] : value?
Found: 300
